Target: 15-PGDH (Homo sapiens)
Construct: purchased Sino Biological Inc. 11205-H08E
Sequence (P15428 1-266): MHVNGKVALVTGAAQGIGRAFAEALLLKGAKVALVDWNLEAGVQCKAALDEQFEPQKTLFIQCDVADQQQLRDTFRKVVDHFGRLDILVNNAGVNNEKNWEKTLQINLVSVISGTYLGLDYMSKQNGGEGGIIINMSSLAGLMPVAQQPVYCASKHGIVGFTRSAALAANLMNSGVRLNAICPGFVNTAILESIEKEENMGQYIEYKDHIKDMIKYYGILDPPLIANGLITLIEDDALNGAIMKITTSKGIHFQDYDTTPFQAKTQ
Assay: Detection of Activity of 15-PGDH Kinase (inhibition of 15-PGDH enzyme)
Assay type: biochemical
pIC50: −log10 of the molar value.
QUANTITY MEASURED: pIC50

The following compounds have reported results that may help.
- CN1Cc2cc(C3=Nc4cc(C(=O)N5CCCCC5)ccc4N4CC5(CC5)N=C34)ccc2C1=O: > 8.70
- O=C(c1ccc2c(c1)nc(-c1ccc3ocnc3c1)c1nccn12)N1CCCCC1: 8.30 to 8.70
- CN1Cc2cc(-c3nc4cc(C(=O)N5CCCCC5)ccc4n4cnnc34)ccc2C1=O: 8.00 to 8.30

Lab note: next compound to report on.
Item: `Cc1cnc2c(-c3ccc4c(c3)CN(C)C4=O)nc3cc(C(=O)N4CCCCC4)ccc3n12` | pIC50: 8.30 to 8.70

Numbers sourced from patent US20260347365A1.
